Values compiled from PubChem BioAssay (NCI).

Kindly supply the reported growth inhibition values for the records listed here.
# protocol_notes: NCI Yeast Anticancer Drug Screen. Data for the rad50 strain (AID 155);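 also: 0% = growth of vehicle-only cultures of the same strain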
# experimental_context: S. cerevisiae rad50 strain growth inhibition; at 11.0 µM; hits give high values
About 79,000 compounds went through this panel and 15% of them were active in at least one assay; those are over-represented in the sample as a whole.
Give bare numbers, in %.

compound | growth inhibition, %
Cc1cc(S(=O)(=O)/N=C(/NN)NNc2cccc(C(F)(F)F)n2)c(S)cc1Cl | -3
CC(O)C(O)C(O)C(/C=N\Nc1ccccc1)=N/Nc1ccccc1 (stereo unspecified) | 10
O=[N+]([O-])c1cc(CCl)ccc1CCl | 84
CCOC(=O)[C@H]1Nc2ccccc2C2c3ccccc3CC21 (stereo partly specified) | -4
C[S+](C)C1(c2ccccc2)C(=O)c2ccccc2C1=O | 18
CCCCCCCC1(N=[N+]=[N-])C(=O)c2ccccc2N(C)C1=O (stereo unspecified) | 13
CNC(=O)OCc1c(COC(=O)NC)c(-c2ccc(Cl)c(Cl)c2)n2c1CCC2 | -37
C/C(=N/NC(=S)N1CCCCCC1)c1cccc(/C(C)=N\NC(=S)N2CCCCCC2)n1 | 62

Batch request: growth inhibition for each of the following compounds.
1. N#Cc1c(N)[nH]c2ccc(Sc3ccccc3)cc12
2. CCC[CH2][Ge]([CH2]CCC)([CH2]CCC)[O]C(=O)C(OC)c1ccccc1 (stereo unspecified)
3. CC(C)OC(=O)Oc1ccccc1OC(=O)OC(C)C

1. 23
2. -2
3. -2
